Target: Adenosine receptor A1 (Homo sapiens)
Sequence (whole entry): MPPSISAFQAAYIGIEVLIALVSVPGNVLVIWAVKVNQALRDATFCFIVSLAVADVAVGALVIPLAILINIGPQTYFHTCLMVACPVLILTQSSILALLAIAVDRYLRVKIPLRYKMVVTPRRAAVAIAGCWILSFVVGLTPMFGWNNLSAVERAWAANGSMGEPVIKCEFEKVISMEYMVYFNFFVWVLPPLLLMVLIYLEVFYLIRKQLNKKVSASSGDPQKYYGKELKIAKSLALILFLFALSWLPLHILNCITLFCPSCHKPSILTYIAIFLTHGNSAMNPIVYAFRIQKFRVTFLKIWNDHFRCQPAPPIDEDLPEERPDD
Test: Ability to displace [3H]- DPCPX from CHO cell membrane expressing the human Adenosine A1 receptor at a concentration of 10 uM
Format: cell membranes
Displacement values for the compounds below.
# number only, unit % dropped from output

Example results:
Smiles Data: O=c1[nH]c(=O)n(Cc2ccccc2)c2nc3ccccn3c12
Measured Number: 47

Smiles Data: CCCn1c(=O)c2c(nc3ccccn32)n(Cc2cccc(C)c2)c1=O
Measured Number: 44

Smiles Data: COc1ccc(Cn2c(=O)c3c(nc4ccccn43)n(Cc3ccccc3)c2=O)cc1
Measured Number: 25

Smiles Data: O=c1c2c(nc3ccccn32)n(Cc2ccccc2)c(=O)n1CC1CC1
Measured Number: 40.9

Smiles Data: CCCn1c(=O)c2c(nc3cc(-c4ccccc4)ccn32)n(Cc2ccccc2)c1=O
Measured Number: 25

# returns recorded Displacement (system: Adenosine receptor A1 (Homo sapiens)) for O=c1c2c(nc3ccccn32)n(Cc2ccccc2)c(=O)n1Cc1ccccc1 20

# returns recorded Displacement (system: Adenosine receptor A1 (Homo sapiens)) for CC(C)(C)c1ccn2c(c1)nc1c2c(=O)[nH]c(=O)n1Cc1ccccc1 53
